Field: normalized growth. Provide a value for each of the molecules that follow.
Experiment Description: chemical genetic growth profiling, strain panel (AID 1159580);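 further: tested at 20 µM; growth read once vehicle control cultures reached saturation at 30 °C; 1 = growth at the plate median or of vehicle wells; lower values mean less growth of the strain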
Particulars: S. cerevisiae deletion strains, growth OD, locus YEL061C, strain CIN8, stronger effect = lower value
The whole screen tested about 5,500 compounds, of which about 2,000 (36%) were called active. Inconclusive results (about 18%) are left out. The list shows a part of the results.
One number for each entry.

Would you please look over these solved cases?
Molecule: CC(=O)c1c(O)c(C)c(O)c2c1oc1c(C(C)=O)c(O)c(C)c(O)c12
normalized growth: 0.98
//
Molecule: c1ccc(N=Nc2ccc(Nc3ccccc3)cc2)cc1
normalized growth: 0.74
//
Molecule: COC1=CC(=O)C[C@@H](C)[C@]12Oc1c(Cl)c(OC)cc(OC)c1C2=O
normalized growth: 0.996
//
Molecule: CC1=C(CC(=O)O)c2cc(F)ccc2/C1=C\c1ccc(S(C)=O)cc1 (centres undefined)
normalized growth: 1.01
//
Molecule: O=C(Oc1ccc(C(F)(F)F)cc1[N+](=O)[O-])c1c(F)cccc1F
normalized growth: 0.235
//
Molecule: O=S(=O)(Nc1cccc2cccnc12)c1cc(Cl)c(Cl)cc1Cl
normalized growth: 0.644
//
Molecule: CC(C)(C)c1ccc(NC(=O)Cc2cc(F)cc(F)c2)cc1
normalized growth: 0.997
//
Molecule: CCC(=O)Nc1cc(F)ccc1C
normalized growth: 0.997

// input: 4 molecules below; output: normalized growth for each
1. NCCSSCCN
2. CC(=O)C1CCC2C3CC(=O)C4=CC(=O)CCC4(C)C3CCC12C (centres undefined)
3. CCOC(=O)C(=CNNC(=O)c1ccccc1-n1cccc1)C(=O)OCC
4. CCOC(=O)CSC(=S)NCc1ccc(C)cc1

Response line:
[1, 0.981, 0.955, 0.216]

Give one value of normalized growth per listed molecule.
1. CCCS(=O)(=O)c1c(C)c(C)n(Cc2ccccc2)c1N
2. CCOC(=O)C(=O)C1(C(=O)OCC)Oc2cc(OC)cc(OC)c2C(=O)C1c1ccccc1 (centres undefined)

Response line:
[0.999, 0.99]

====

Experiment Description: chemical genetic growth profiling, strain panel (AID 1159580)
Particulars: S. cerevisiae deletion strains, growth OD, locus YAL030W, strain snc1, stronger effect = lower value
Among all 5,500 compounds or so, about 2,000 (36%) were called active. About 18% were inconclusive and are not listed. The list shows a part of the results.
Readout Name: normalized growth

Structure Smiles: CC(C)c1c(C(=O)c2ccccc2)c(-c2ccccc2)c(-c2ccc(F)cc2)n1CC[C@@H](O)C[C@@H](O)CC(=O)O
Readout Name: normalized growth
Recorded Result: 0.94 (inactive)

Structure Smiles: COc1ccc2c(c1)OCc1c-2oc2cc(OC)ccc12
Readout Name: normalized growth
Recorded Result: 0.919 (active)

Now, please, on to the next molecule.
Prompt line: Given the entry "CN1CCC(=C2c3ccccc3Sc3ccccc32)CC1" , report its measured normalized growth.
Response line: 1.03 (inactive)

====

Experiment Description: chemical genetic growth profiling, strain panel (AID 1159580);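 further: tested at 20 µM; growth read once vehicle control cultures reached saturation at 30 °C; 1 = growth at the plate median or of vehicle wells; lower values mean less growth of the strain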
Particulars: S. cerevisiae deletion strains, growth OD, locus YIR030C, strain dcg1, stronger effect = lower value
Among all 5,500 compounds or so, about 2,000 (36%) were called active. Inconclusive results (about 18%) are left out. This is one part of the list.
Readout Name: normalized growth
One number for each entry.

Molecule: CC(C)OC(=O)C(C)(C)Oc1ccc(C(=O)c2ccc(Cl)cc2)cc1
Recorded Result: 0.983

Molecule: CCOC(=O)C(C)(C)Oc1ccc(Cl)cc1
Recorded Result: 0.994

Molecule: CC1(C)C(C=C(Cl)Cl)C1C(=O)OC(C#N)c1cccc(Oc2ccccc2)c1 (stereo not drawn)
Recorded Result: 0.998

Molecule: CC(N)C(=O)OC(C)(C)Cc1ccc(Cl)cc1 (stereo not drawn)
Recorded Result: 0.977

Molecule: CNCCc1ccccn1
Recorded Result: 1.01

Molecule: CC1=C(/C=C/C(C)=C/C=C/C(C)=C/C=C/C=C(C)/C=C/C=C(C)/C=C/C2=C(C)C(=O)C(O)CC2(C)C)C(C)(C)CC(O)C1=O (stereo not drawn)
Recorded Result: 1.01

Molecule: COc1ccc(OC)c(C(O)C(C)N)c1 (stereo not drawn)
Recorded Result: 0.988

Molecule: CC(C)CC(NC(=O)C(Cc1ccccc1)NC(=O)CNC(=O)CNC(=O)C(N)Cc1ccc(O)cc1)C(=O)O (stereo not drawn)
Recorded Result: 1

Molecule: CN1CCC(=C2c3ccccc3CC(=O)c3sccc32)CC1
Recorded Result: 1.01

Molecule: c1cncc(C2CCCCN2)c1 (stereo not drawn)
Recorded Result: 0.988

Hey, can you go through the list below and give me normalized growth for every item?
1. COc1cc2c(cc1OC)C1C(=O)c3c(OC)cc4c(c3OC1CO2)CCC(C)(C)O4 (stereo not drawn)
2. Cc1cc(O)c(C)c(O)c1C(=O)O
3. C=C1C([C@]2(C)C(CC(=O)OC)[C@@](C)(COC(C)=O)OC(=O)C[C@@H]2OC(C)=O)[C@@H](OC=O)[C@H](OC(=O)C(O)C(C)CC)[C@@]2(C)[C@H](c3ccoc3)CC(=O)C12O (stereo partly drawn)
4. COc1cc(NC(C)CCCN)c2ncccc2c1 (stereo not drawn)
5. Cc1cc(O)c(C=O)c(O)c1C(=O)O
6. COC1=CC(=O)C[C@@H](C)[C@]12Oc1c(Cl)c(OC)cc(OC)c1C2=O

Response line:
[0.985, 0.989, 1.01, 1.01, 1.02, 1.01]

I have 2 molecules here; please give me normalized growth for each one.
1. CS(=O)(=O)c1ccc(C2=C(c3ccccc3)C(=O)OC2)cc1
2. COc1ccc2c3c1O[C@H]1C[C@@H](O)C=C[C@@]31CCN(C)C2

Response line:
1. 0.987
2. 1.02

====

Kindly state normalized growth for each of the entries shown.
Experiment Description: chemical genetic growth profiling, strain panel (AID 1159580);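 further: tested at 20 µM; growth read once vehicle control cultures reached saturation at 30 °C; 1 = growth at the plate median or of vehicle wells; lower values mean less growth of the strain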
Particulars: S. cerevisiae deletion strains, growth OD, locus YLR342W, strain FKS1 (second series), stronger effect = lower value
About 2,000 (36%) of roughly 5,500 compounds were called active. Roughly 18% stayed inconclusive and do not appear here. The list shows a part of the results.
One number for each entry.

Compound: COc1cc2c(cc1OC)C1C(=O)c3c(cc4c(c3O)C=CC(C)(C)O4)OC1CO2 (centres undefined)
normalized growth: 0.961

Okay, here is my list. What is normalized growth for each of these?
1. COc1cc2c(cc1OC)[C@@H]1C(=O)c3ccc4oc(C(C)C)cc4c3O[C@@H]1CO2
2. CC(C[N+](C)(C)C)OC(N)=O (centres undefined)
3. CCN(CC)CCCC(C)Nc1ccnc2cc(Cl)ccc12 (centres undefined)

Response line:
1: 1.03; 2: 1.06; 3: 1.03

Consider the following items and state reported normalized growth for each.
1. C[N+](C)(C)CCOC(N)=O
2. CCOC(=O)C(Cc1ccc(O)cc1)NC(C)=O (centres undefined)
3. CC1=C(CC(=O)O)c2cc(F)ccc2/C1=C\c1ccc(S(C)=O)cc1 (centres undefined)
4. CC1(C)OC(=O)NC1=O
5. COc1cc2c(cc1OC)C(=O)OC2
6. CS(=O)(=O)c1ccc(C2=C(c3ccccc3)C(=O)OC2)cc1
7. O=C(O)c1cc2ccccc2[nH]1
8. O=C(O)C1(O)C[C@@H](O)C(O)[C@H](O)C1 (some centres undefined)

Response line:
[1.12, 1.07, 1.02, 1.04, 1.07, 1.01, 0.993, 1.01]

Provide reported normalized growth for each item, in the same order as listed.
1. C[C@@H]1[C@H]2[C@H](O[C@@H]3O[C@H](CO)[C@@H](O)[C@H](O)[C@H]3O)OC=C(C(=O)O)[C@H]2C[C@@H]1O
2. CCCCCCCCCCCCCCCC[N+](C)(C)C

Response line:
1.11
0.0636

====

Experiment Description: chemical genetic growth profiling, strain panel (AID 1159580);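 further: tested at 20 µM; growth read once vehicle control cultures reached saturation at 30 °C; 1 = growth at the plate median or of vehicle wells; lower values mean less growth of the strain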
Particulars: S. cerevisiae deletion strains, growth OD, locus YLR039C, strain RIC1, stronger effect = lower value
Out of some 5,500 compounds screened, about 2,000 (36%) were called active. Roughly 18% stayed inconclusive and do not appear here. The list shows a part of the results.
Please note: normalized growth exactly at 1 is Not met. Only values below 1 get Met.

Record excerpt, results attached:
Compound: CCCc1cc(=O)c2ccc(O)cc2o1
Class Label: Met

Compound: COc1cc(NC(C)CCCN)c2ncccc2c1 (configuration not stated)
Class Label: Not met

Compound: CC1=C(OS(=O)(=O)c2cc(C)c(Cl)cc2Cl)C(=O)CC1
Class Label: Met

Compound: COc1cc2c(cc1OC)[C@@H]1C(=O)c3ccc4c(c3O[C@@H]1CO2)C=CC(C)(C)O4
Class Label: Met

Prompt line: For CC(=O)OCC(=O)[C@H]1CCC2C3CCC4=CC(=O)CC[C@]4(C)C3CC[C@@]21C (some centres not stated) , is the recorded normalized growth below the cut-off of 1?
Response line: Met

Prompt line: Lab note: normalized growth threshold 1. Does this compound come in strictly under it? CC(N)C(=O)OC(C)(C)Cc1ccc(Cl)cc1 (configuration not stated)
Response line: Not met

Prompt line: Criterion: normalized growth strictly below 1. Is it met by "CC(C)(OC(=O)c1ccccc1)[C@@H]1Cc2cc3ccc(=O)oc3cc2O1" ?
Response line: Not met

Prompt line: Problem: For the compound "COc1ccc2c(c1OC)C(=O)O[C@@H]2[C@H]1c2cc3c(cc2CCN1C)OCO3" , is normalized growth under 1?
Response line: Not met

Prompt line: Dear reviewer, please state whether "COc1cc(/C=C2\NC(=O)NC2=O)ccc1O" has normalized growth strictly beneath 1.
Response line: Met

Prompt line: Report whether reported normalized growth is lower than 1 (strictly) for "COc1ccc2c(c1OC)C(=O)O[C@H]2[C@H]1c2cc3c(cc2CCN1C)OCO3"
Response line: Not met

Prompt line: In plain terms, does "COc1cc2c(cc1OC)[C@@H]1C(=O)c3ccc(OC)c(CC=C(C)C)c3O[C@@H]1CO2" come in under 1 for normalized growth?
Response line: Met

Prompt line: Identify whether the compound ClC1=C(Cl)C2(Cl)C3C4C=CC(C4)C3C1(Cl)C2(Cl)Cl (configuration not stated) records normalized growth below 1.
Response line: Met

Prompt line: Here's an entry: "COC(=O)/C(=C/N(C)C)Sc1cc(C)c(Cl)cc1Cl" . Is its normalized growth below 1?
Response line: Met
